run.description: Study of crystallization from various solvents (solubility at 55° C. and crystal form obtained)
Type: physicochemical
settings: 55 °C, organic solvent or mixture, thermodynamic from solid; solvent acetonitrile
quantity.measured: solubility (µg/mL)
Response body: numeric value in µg/mL, unit text excluded.

Prompt: For the molecule CCn1c(=O)n(-c2ccc(Oc3nc4cccnc4n3C)cc2)c2nccc(C)c21 [Form A] , give its measured solubility value.
Response: 8100

====

run.description: Study of crystallization from various solvents (solubility at 55° C. and crystal form obtained)
Type: physicochemical
settings: 55 °C, organic solvent or mixture, thermodynamic from solid; solvent ethyl acetate
quantity.measured: solubility (µg/mL)
Give the value, in units of µg/mL, as a plain number.

Prompt: Answer with the recorded solubility for the molecule listed here: CCn1c(=O)n(-c2ccc(Oc3nc4cccnc4n3C)cc2)c2nccc(C)c21 [Form A]
Response: 3400

====

run.description: Study of crystallization from various solvents (solubility at 55° C. and crystal form obtained)
Type: physicochemical
settings: 55 °C, organic solvent or mixture, thermodynamic from solid; solvent chloroform
quantity.measured: solubility

Prompt: Tell us which solubility value is on record for CCn1c(=O)n(-c2ccc(Oc3nc4cccnc4n3C)cc2)c2nccc(C)c21 [Form A]
Response: > 200 mg/mL

====

run.description: Study of crystallization from various solvents (solubility at 55° C. and crystal form obtained)
Type: physicochemical
settings: 55 °C, organic solvent or mixture, thermodynamic from solid; solvent acetone
quantity.measured: solubility (µg/mL)
API: value field is a number in µg/mL; no unit string.

Prompt: Given CCn1c(=O)n(-c2ccc(Oc3nc4cccnc4n3C)cc2)c2nccc(C)c21 [Form A] , respond with its solubility.
Response: 6500

====

run.description: Study of crystallization from various solvents (solubility at 55° C. and crystal form obtained)
Type: physicochemical
settings: 55 °C, organic solvent or mixture, thermodynamic from solid; solvent ethanol
quantity.measured: solubility (µg/mL)
Report the figure in µg/mL without appending any unit label.

Prompt: Find the measured solubility of CCn1c(=O)n(-c2ccc(Oc3nc4cccnc4n3C)cc2)c2nccc(C)c21 [Form A] and report it.
Response: 2600
